# assayed-system: Calcium and integrin-binding protein 1 (Homo sapiens) (UniProt Q99828)
# Sequence (Q99828 whole entry, looked up): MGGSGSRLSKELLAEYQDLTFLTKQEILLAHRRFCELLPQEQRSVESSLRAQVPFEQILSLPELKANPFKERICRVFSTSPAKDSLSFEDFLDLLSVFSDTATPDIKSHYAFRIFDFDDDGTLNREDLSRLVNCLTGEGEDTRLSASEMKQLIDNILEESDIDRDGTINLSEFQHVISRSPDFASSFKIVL
# assay-comment: Primary qHTS for Identification of Calcium Integrin Binding Protein 1 (CIB1) Competitor (AID 1508620);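 note: GST tagged CIB1 binding a fluorescein labelled alphaIIb integrin peptide tracer; top concentration of the series differs between compounds; % is set by controls: 0 for no effect and ±100 for the full control effect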
# setup-conditions: CIB1-GST / FITC-alphaIIb peptide fluorescence polarization; series mostly up to 114 µM
Results filed as inconclusive are left out. The source made the active and inactive calls. Calls come from the whole dose curve; as a rule, active = well fitted inhibition curve with a large enough effect; inconclusive = small, poorly fitted or top-dose-only effect; inactive = flat fitted curve, though single readings scatter.
property-name: outcome

compound: N#CN1CCC(NC(=O)c2cccc(C(F)(F)F)c2)CC1
outcome: inactive
//
compound: CCn1cnc2c(Nc3ccc(Cc4cccnc4)cc3)nc(C#N)nc21
outcome: inactive
//
compound: CC(=O)Nc1sc2c(c1-c1ccc3c(c1)OCCO3)CCNC2
outcome: inactive
//
compound: CC(=O)c1ccc(N2CCN(S(=O)(=O)c3ccc4[nH]c(=O)[nH]c4c3)CC2)cc1
outcome: inactive
//
compound: O=C(Nc1ncc(Cc2ccc(C(F)(F)F)cc2)s1)c1ccc(-c2cccnc2)o1
outcome: inactive

Could you report outcome for every entry in the following list?
1. N[C@H]1CCN(c2cnc3c(O)ccc(C(=O)O)c3c2)C1
2. O=C1c2ccccc2NC(c2ccccc2O)N1Cc1ccccc1 (stereo unspecified)
3. O=C(O)c1ccc(O)c2ncc(-c3n[nH]nc3-c3ccccc3)cc12
4. N#CN1CCC(NC(=O)c2cccc(F)c2)CC1

1: inactive; 2: inactive; 3: inactive; 4: inactive

Could you report outcome for every entry in the following list?
1. Cc1c(C(=O)N(C)CC2CCCO2)[nH]c2c1C(=O)CC(c1ccco1)C2 (stereo unspecified)
2. O=C(Nc1nc(-c2ccccc2)cs1)c1ccccc1-n1cnnn1
3. COc1cc(O)c(C(CC(=O)N2CC(C)CC(C)C2)c2ccc(O)cc2)c(OC)c1 (stereo unspecified)
4. O=C(O)c1ccc2c(c1)C(=O)N([C@H](Cc1ccc(O)cc1)C(=O)O)C2=O
5. Cc1ccc(NS(=O)(=O)c2cc3c(cc2/C=C/c2ccccc2)NC(=O)CO3)cc1C
6. COc1ccc(Nc2nc(-c3ccncc3)nc3ccccc23)cc1F

1. inactive
2. inactive
3. inactive
4. inactive
5. inactive
6. inactive

Could you report outcome for every entry in the following list?
1. COc1cccc(C2=Nn3c(nnc3-c3cc(OC)cc(OC)c3)SC2)c1
2. COc1cc(OC)c(C(CC(=O)N2CC(C)CC(C)C2)c2ccc3c(c2)OCO3)c(OCC(N)=O)c1 (stereo unspecified)
3. Cc1ccc(-c2cc(C(=O)Nc3ccc(S(=O)(=O)N(C)C)cc3)c3ccccc3n2)cc1C
4. O=C1CCCC2=C1C(c1[nH]ncc1Cl)N=C(Nc1nc3ccc(Cl)cc3o1)N2 (stereo unspecified)

["inactive", "inactive", "inactive", "inactive"]

Could you report outcome for every entry in the following list?
1. Cc1cc(C)nc(Nc2nnc(N3CCN(c4cccc(C(F)(F)F)c4)CC3)s2)c1
2. COc1cccc(C2C(C#N)=C(NC(=O)NCc3ccccc3)Oc3ccc4ccccc4c32)c1 (stereo unspecified)

1: inactive; 2: inactive

* * *

Exercise: for every item that follows, state its recorded activity change, negative = inhibition.
# assay-comment: AP1 Signaling Pathway (AID 357);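 note: ME-180 reporter cells stimulated with EGF at its EC50 level; % is set by controls: 0 for no effect and ±100 for the full control effect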
# setup-conditions: ME-180 (cervical carcinoma) AP-1-bla reporter, EGF-induced, beta-lactamase ratio, 5 h; at 7.69 µM (top of the series) unless noted
Records with an inconclusive call do not appear.
Answers are plain numbers, in %.

Examples with answers:
chemical-smiles: FC(F)(F)c1cc(CN2CC3(CCNCC3)C2)cc(C(F)(F)F)c1
activity change, negative = inhibition / %: -6.77
--
chemical-smiles: COc1ccc(C(=O)N2CCC[C@@]3(CCN(C(=O)Nc4ccccc4)C3)C2)cc1
activity change, negative = inhibition / %: -19.4
--
chemical-smiles: CN(C)c1ccc(-c2ccc3ncnc(N(C)C)c3c2)cc1
activity change, negative = inhibition / %: -10.3
--
chemical-smiles: c1cncc(-c2cncnc2-n2ccnc2)c1
activity change, negative = inhibition / %: 7.52
--
chemical-smiles: COCCn1c(=O)c(-c2cn(C)c3ccccc23)nc2cnc(N3CCOCC3)nc21
activity change, negative = inhibition / %: -12.3

Shifting focus to the compound that follows.
# lookup: activity change, negative = inhibition of COc1cccc(-c2cncnc2-n2ccnc2)c1
3.37
